target: Factor D (Homo sapiens (Human), UniProt P00746); assay: biochemical; type: biochemical; settings: read-out: IC50
Sequence (P00746 26-253): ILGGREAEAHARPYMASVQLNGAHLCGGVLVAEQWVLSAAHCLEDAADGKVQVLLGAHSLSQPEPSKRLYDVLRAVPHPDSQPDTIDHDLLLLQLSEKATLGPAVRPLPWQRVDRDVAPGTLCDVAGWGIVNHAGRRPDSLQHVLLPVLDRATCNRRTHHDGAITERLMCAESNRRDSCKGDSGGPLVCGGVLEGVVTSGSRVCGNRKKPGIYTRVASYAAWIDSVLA
readoutKind: log10 IC50 (log10 of the value in nM)

> print(dat)
                                    compound  reportedmeasurement
 1  CC(=O)c1nn(CC(=O)N2[C@@H]3C[C@@H]3C[C@H]2C(=O)Nc2cccc(OC(F)(F)F)c2F)c2ccc(OCC3CCCO3)cc12 (some centres unmarked)                 0.85
 2  COCCOc1ccc2c(c1)c(NC(=O)N1C[C@](C)(F)C[C@H]1C(=O)NCc1cccc(Cl)c1F)cn2C(N)=O                 1.26
 3  C[C@@H](NC(=O)[C@@H]1[C@H](O)CCN1C(=O)Nc1cn(C(N)=O)c2ccccc12)c1cccc(Cl)c1F (single isomer, unassigned)                 2.95
 4  CC(=O)c1nc(CC(=O)N2[C@@H]3C[C@@H]3C[C@H]2C(=O)NCc2cccc(Cl)c2F)n2ccccc12                 1.28
 5  CC(=O)c1cn(CC(=O)N2[C@@H]3C[C@@H]3C[C@H]2C(=O)NCc2cccc(Cl)c2F)c2cc(OCc3ccccc3)ccc12                 2.08
 6  O=C(CO)c1cn(CC(=O)N2C[C@H](F)C[C@H]2C(=O)NCc2cccc(Br)c2F)c2ccccc12                 1.11
 7  NC(=O)n1cc(NC(=O)N2C3CC3C[C@H]2C(=O)NCc2cccc(Cl)c2F)c2cc(F)ccc21 (some centres unmarked)                 0.70
 8  NC(=O)n1cc(NC(=O)N2C[C@@H](N)C[C@H]2C(=O)NCc2ccc(F)c(Cl)c2)c2ccccc21                 3.29
 9  NC(=O)n1cc(NC(=O)N2C[C@@H](N)C[C@H]2C(=O)NC[C@@H]2CCCC[C@@H]2O)c2ccccc21                 4.19
10  NC(=O)n1cc(NC(=O)N2CCS[C@H]2C(=O)NCc2cccc(Cl)c2F)c2cc(OCCO)ccc21                 1.23
11  N#C[C@@H]1C[C@@H](C(=O)Nc2cccc(OC(F)(F)F)c2)N(C(=O)Nc2cn(C(N)=O)c3ccccc23)C1                 3.60
12  CCc1cc2c(C(N)=O)nn(CC(=O)N3[C@@H]4C[C@@H]4C[C@H]3C(=O)Nc3cccc(Br)c3F)c2cn1                 1.89
13  CO[C@H]1[C@@H](C(=O)NCc2cccc(Cl)c2F)N(C(=O)Cn2cc(C(C)=O)c3ccncc32)C[C@@H]1F                 1.28
14  COc1ccc2c(c1)c(C(C)=O)cn2CC(=O)N1CCCC[C@H]1C(=O)NCc1cccc(Cl)c1F                 2.67

These entries and their values trace back to patent US9085555B2.
